Each entry below carries its reported MIC.
System: Staphylococcus aureus
Assay: Antibacterial activity Staphylococcus aureus USA300 assessed as inhibition of visible bacterial growth incubated for 18 hrs by microbroth dilution assay
Format: functional
Where a SMILES comes first, the peptide text is derived from it. [ ]: non-standard residue; d: D form. The star is where a group is joined. ξ: configuration not given here. Hexanoyl(4ξ-Me) = CCC(C)CCC(=O)*; dOrn = NCCC[C@@H](N)C(=O)O; Orn = NCCC[C@H](N)C(=O)O

{"Compound": "CCC(C)CCC(=O)N[C@H](CC(N)=O)C(=O)N[C@H](Cc1ccc(O)cc1)C(=O)N[C@H](Cc1c[nH]c2ccccc12)C(=O)N[C@H](CCCN)C(=O)N[C@@H](CCCN)C(=O)N[C@@H](C)C(=O)N[C@H](CCCN)C(=O)N[C@@H](Cc1c[nH]c2ccccc12)C(=O)N[C@H](C(=O)N[C@H](C(=O)NCC(=O)N[C@@H](CO)C(N)=O)[C@@H](C)CC)[C@@H](C)O (stereo partly drawn) ({Hexanoyl(4ξ-Me)}-[dN][dY][dW][dOrn][Orn]A[dOrn]WTIGS-NH2)", "Value": "> 32 µg/mL"}

Query: MIC; subject: CCC(C)CCC(=O)N[C@H](C)C(=O)N[C@H](Cc1ccc(O)cc1)C(=O)N[C@H](Cc1c[nH]c2ccccc12)C(=O)N[C@H](CCCN)C(=O)N[C@@H](CCCN)C(=O)NCC(=O)N[C@H](CCCN)C(=O)N[C@@H](Cc1c[nH]c2ccccc12)C(=O)N[C@H](C(=O)N[C@H](C(=O)NCC(=O)N[C@@H](CO)C(N)=O)[C@@H](C)CC)[C@@H](C)O (stereo partly drawn) ({Hexanoyl(4ξ-Me)}-[dA][dY][dW][dOrn][Orn]G[dOrn]WTIGS-NH2)
> 32 µg/mL

Please give the result for CCC(C)CCC(=O)N[C@H](CC(N)=O)C(=O)N[C@H](Cc1ccc(O)cc1)C(=O)N[C@H](C)C(=O)N[C@H](CCCN)C(=O)N[C@@H](CCCN)C(=O)NCC(=O)N[C@H](CCCN)C(=O)N[C@@H](Cc1c[nH]c2ccccc12)C(=O)N[C@H](C(=O)N[C@H](C(=O)NCC(=O)N[C@@H](CO)C(N)=O)[C@@H](C)CC)[C@@H](C)O (stereo partly drawn) ({Hexanoyl(4ξ-Me)}-[dN][dY][dA][dOrn][Orn]G[dOrn]WTIGS-NH2) too.
> 32 µg/mL
